This section presents variants with their documented self-cleavage values.
B1: Hairpin Ribozyme (parent)
chain: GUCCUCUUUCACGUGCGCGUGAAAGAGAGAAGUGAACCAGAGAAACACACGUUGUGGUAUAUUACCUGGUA

Variants of: B1
PROTOCOL DESCRIPTION: self-cleavage, relative activity (ratio to wild type); higher = more cleavage; co-transcriptional
METRIC NAME: self-cleavage

>>> df
    variant_identifier    metric_name  value_observed
 0            U5G U62G  self-cleavage           0.145
 1           U52G G68U  self-cleavage           0.136
 2           A41U C66G  self-cleavage           0.172
 3           G25U U52C  self-cleavage           0.626
 4           C16G G42C  self-cleavage           0.152
 5           C16U U60G  self-cleavage           0.634
 6            C4A G13A  self-cleavage           0.193
 7            U8C A43C  self-cleavage           0.126
 8            U9A A44C  self-cleavage           0.132
 9           C16U G57U  self-cleavage           0.266
10           C12G U58C  self-cleavage           0.762
11           A24G A61U  self-cleavage           0.084
12           U58A A61C  self-cleavage          0.0874
13           C16G G21C  self-cleavage           0.285
14           G57U G68U  self-cleavage           0.196
15           G40A C66G  self-cleavage           0.164
16           A31C G32U  self-cleavage           0.348
17           G15A U62A  self-cleavage           0.177
18           C66A U67G  self-cleavage           0.091
19            U9G G54U  self-cleavage            0.52
20            U2C A22U  self-cleavage           0.296
21           A31G G68A  self-cleavage           0.189
22           C46U C65U  self-cleavage           0.216
23            U9A G17U  self-cleavage            0.65
24            U7A U62C  self-cleavage           0.222
25            U5G G69C  self-cleavage           0.104
26           G13C C18A  self-cleavage           0.932
27           U55C G57C  self-cleavage            0.12
28           A30G A47U  self-cleavage           0.131
29           G54C G56U  self-cleavage           0.166
30            G1U C37U  self-cleavage          0.0964
31           C18U A24C  self-cleavage            1.21
32            U7A A26U  self-cleavage           0.202
33            C3U C65G  self-cleavage           0.153
34           C38U C66U  self-cleavage           0.192
35           A11U G19A  self-cleavage            0.79
36           C38U A45G  self-cleavage           0.197
37           G42U C46A  self-cleavage           0.201
38           A36G U58C  self-cleavage               1
39            U9C U14A  self-cleavage           0.781
40           U14A A47U  self-cleavage           0.143
41            C3A A49U  self-cleavage          0.0975
42            U7C C38G  self-cleavage           0.202
43           A39G A47U  self-cleavage           0.134
44           A39U C46A  self-cleavage           0.166
45             G1C U8C  self-cleavage           0.172
